# measurement_description: chemical genetic growth profiling, strain panel (AID 1159580);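 also: tested at 20 µM; growth read once vehicle control cultures reached saturation at 30 °C; lower values mean less growth of the strain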
# condition: S. cerevisiae deletion strains, growth OD, locus YER110C
Among all 5,500 compounds or so, about 2,000 (36%) were called active. Roughly 18% stayed inconclusive and do not appear here. Rule as the data show it: active = normalized growth mostly below about 0.91 (no sharp cut-off); inconclusive = no clear call, values can overlap the other calls; inactive = mostly above about 0.92. This is one part of the list.
Classes used: TRUE (active), FALSE (inactive)

[
  {
    "compound": "CCCCCCCCCCCC(=O)OCC(COP(=O)(O)OCC(O)COP(=O)(O)OCC(COC(=O)CCCCCCCCCCC)OC(=O)CCCCCCCCCCC)OC(=O)CCCCCCCCCCC (stereo unspecified)",
    "label_value": "FALSE"
  },
  {
    "compound": "CC(=O)C1CCC2C3CCC4C[C@H](O)CCC4(C)C3C[C@H](O)C12C (stereo partly specified)",
    "label_value": "FALSE"
  },
  {
    "compound": "C[C@]12CCC3C(CC[C@H]4C[C@@H](O)CC[C@]34C)C1CC[C@@H]2O (stereo partly specified)",
    "label_value": "FALSE"
  },
  {
    "compound": "CC(C)/C(O)=C1/C(=O)O[C@@H](c2ccoc2)[C@]2(C)C(O)[C@@H](O)[C@@]34OC5(C)OC67CC(C)(C(O)[C@]6(O)[C@@H](O)[C@]3(O5)C12)[C@H](CC(=O)O)[C@]74C (stereo partly specified)",
    "label_value": "FALSE"
  },
  {
    "compound": "O=C(O)CCCCCCCC(=O)O",
    "label_value": "FALSE"
  },
  {
    "compound": "CCCNC(=O)NS(=O)(=O)c1ccc(Cl)cc1",
    "label_value": "FALSE"
  },
  {
    "compound": "C[C@]12CCC3C(CC[C@H]4C[C@H](O)CC[C@]34C)C1CC[C@@H]2O (stereo partly specified)",
    "label_value": "FALSE"
  },
  {
    "compound": "NCCCCCC(=O)O",
    "label_value": "FALSE"
  },
  {
    "compound": "Clc1ccc(COC(Cn2ccnc2)c2ccc(Cl)cc2Cl)cc1 (stereo unspecified)",
    "label_value": "TRUE"
  },
  {
    "compound": "NCCCCC(=O)O",
    "label_value": "FALSE"
  },
  {
    "compound": "O=C(O)COc1ccc(Cl)cc1Cl",
    "label_value": "FALSE"
  }
]

###

# measurement_description: chemical genetic growth profiling, strain panel (AID 1159580);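 also: tested at 20 µM; growth read once vehicle control cultures reached saturation at 30 °C; lower values mean less growth of the strain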
# condition: S. cerevisiae deletion strains, growth OD, locus YDR195W, strain ref2
About 2,000 (36%) of roughly 5,500 compounds were called active. Roughly 18% stayed inconclusive and do not appear here. The list shows a part of the results.
// boundary case: normalized growth equal to 0.9 maps to NO; strictly smaller maps to YES

[
  {
    "compound": "O=NN(CCCl)C(=O)NCCCl",
    "label_value": "NO"
  },
  {
    "compound": "CC1(C)N([O-])[N+](=O)C1(C)Br (centres undefined)",
    "label_value": "NO"
  },
  {
    "compound": "CC1CCC(NC(=O)N(CCCl)N=O)CC1 (centres undefined)",
    "label_value": "NO"
  },
  {
    "compound": "CC1[C@H](C)OC(=O)CC(O)CC(O)CC(O)CCC(O)C(O)C[C@]2(O)CC(O)C(C(=O)O)C(CC(OC3O[C@H](C)[C@@H](O)[C@H](N)[C@@H]3O)/C=C/C=C/C=C/C=C/CC/C=C/C=C/[C@H](C)[C@H]1O)O2 (some centres undefined)",
    "label_value": "YES"
  },
  {
    "compound": "Clc1ccc(COC(Cn2ccnc2)c2ccc(Cl)cc2Cl)c(Cl)c1 (centres undefined)",
    "label_value": "YES"
  },
  {
    "compound": "Clc1ccc(CSC(Cn2ccnc2)c2ccc(Cl)cc2Cl)cc1 (centres undefined)",
    "label_value": "YES"
  },
  {
    "compound": "Clc1ccccc1CN1CCc2sccc2C1",
    "label_value": "NO"
  },
  {
    "compound": "CC1C/C=C/C=C/C=C/C=C/C(O[C@@H]2O[C@H](C)[C@@H](O)[C@H](N)[C@@H]2O)CC2OC(O)(CC(O)CC3OC3/C=C/C(=O)O1)CC(O)C2C(=O)O (some centres undefined)",
    "label_value": "NO"
  },
  {
    "compound": "COC1C=CC23c4cc5c(cc4CN(CC2O)[C@@H]3C1)OCO5 (some centres undefined)",
    "label_value": "NO"
  }
]
